- System: yellow nutsedge
- test.description: Test G preemergence/postemergence greenhouse plant response rating 0 to 100
- Format: in vivo, Cyperus esculentus
- experimental.conditions: PREEMERGENCE, Rate 125 g/ha, 0 to 100 scale
quantity.measured: Plant response rating, Yellow Nutsedge
Give the value as a plain number.

Lab book: Plant response rating, Yellow Nutsedge of CCCN1C(=O)COc2cc(F)c(-c3nn4c(c3Cl)CCCC4)cc21 noted as 0

The measured Plant response rating, Yellow Nutsedge associated with CC(C)Oc1cc(-c2nn3c(c2Cl)CCCC3)c(F)cc1Cl reads 0

# Plant response rating, Yellow Nutsedge of C=CCN1C(=O)COc2cc(F)c(-c3nn4c(c3Cl)CCCC4)cc21 = 0

GET /value?item= Fc1cc(Cl)c(OCc2ccccc2)cc1-c1nn2c(c1Cl)CCCC2 &field=Plant response rating, Yellow Nutsedge returns 0

###

Exercise: for every item that follows, state its recorded Plant response rating, Corn.
- Tested on: corn
- test.description: Test B preemergence/postemergence greenhouse plant response rating 0 to 10
- Assay type: in vivo, Zea mays
- experimental.conditions: PREEMERGENCE, Rate 50 g/ha; 0 to 10 scale
Write the value as a bare number.

The reported Plant response rating, Corn of the compound C#CC(C)Oc1cc(-c2nn3c(c2Cl)CCCC3)c(Cl)cc1Cl (centres unmarked) [Compound 74] was 0

Plant response rating, Corn in this record for COCCN1C(=O)COc2cc(F)c(-c3nn4c(c3Cl)CCCC4)cc21 [Compound 53] : 0

The recorded Plant response rating, Corn for Fc1cc(Cl)c(OC2CCCC2)cc1-c1nn2c(c1Cl)CCCC2 [Compound 24] is 0

Value of Plant response rating, Corn reported for the compound CCCOc1cc(-c2nn3c(c2Cl)CCCC3)c(F)cc1Cl [Compound 23] is 0

Lab note: measured Plant response rating, Corn of CCOCOc1cc(-c2nn3c(c2Cl)CCCC3)c(F)cc1Cl [Compound 59] was 1

###

- System: wild oat
- test.description: Test B preemergence/postemergence greenhouse plant response rating 0 to 10
- Assay type: in vivo, Avena fatua
- experimental.conditions: Rate 200 g/ha, POSTEMERGENCE; 0 to 10 scale
Rule: Plant response rating, Wild oat under 5 gives No, otherwise Yes.

query: Test whether the molecule CC(C)(C)C(=O)COc1cc(-c2nn3c(c2Cl)CCCC3)c(Cl)cc1Cl records Plant response rating, Wild oat of 5 or higher.
result: No

query: State whether the measured Plant response rating, Wild oat reaches 5, counting equality as reaching it, for COc1cc(-c2nn3c(c2Cl)CCCC3)c(F)cc1Cl
result: Yes

query: In plain terms: is recorded Plant response rating, Wild oat at least 5 for CCOC(=O)COc1cc(-c2nn3c(c2Cl)CCCC3)c(Cl)cc1Cl ?
result: No

query: Test whether the molecule COC(=O)c1cc(-c2nn3c(c2Cl)CCCC3)c(F)cc1Cl records Plant response rating, Wild oat of 5 or higher.
result: Yes

query: Does Plant response rating, Wild oat meet or surpass 5 for C#CC(C)Oc1cc(-c2nn3c(c2Br)CCCC3)c(F)cc1Cl (stereo not shown) ?
result: Yes

###

Please respond with reported Plant response rating (0 to 10 scale), Chickweed for every item in the list.
- Tested on: chickweed
- test.description: Test B preemergence/postemergence greenhouse plant response rating 0 to 10
- Assay type: in vivo, Stellaria media
- experimental.conditions: PREEMERGENCE, Rate 200 g/ha
API doc: respond with a numeric literal and nothing else, no unit.

The measured Plant response rating (0 to 10 scale), Chickweed associated with C#CC(C)Oc1cc(-c2nn3c(c2Cl)CCCC3)c(Cl)cc1Cl (centres unmarked) reads 5

For reference, reported Plant response rating (0 to 10 scale), Chickweed for CON=C(C)c1cc(-c2nn3c(c2Cl)CCCC3)c(F)cc1Cl stands at 0

In plain terms, Clc1cc(Cl)c(-c2nn3c(c2Cl)CCCC3)cc1OCC1CC1 has a documented Plant response rating (0 to 10 scale), Chickweed of 0

Notebook: C=CCOc1cc(-c2nn3c(c2Cl)CCCC3)c(Cl)cc1Cl , Plant response rating (0 to 10 scale), Chickweed read as 0

Plant response rating (0 to 10 scale), Chickweed measured on Oc1cc(-c2nn3c(c2Br)CCCC3)c(F)cc1Cl = 9

###

Could you please report measured Plant response rating (0 to 100), Morningglory for the items listed next?
- Tested on: morningglory
- test.description: Test C preemergence/postemergence greenhouse plant response rating 0 to 100
- Type: in vivo, Ipomoea hederacea
- experimental.conditions: POSTEMERGENCE; Rate 1 g/ha
Enter the number alone.

Plant response rating (0 to 100), Morningglory for C#CCN1C(=O)COc2cc(F)c(-c3nn4c(c3Br)CCCC4)cc21 [Compound 56] is 50

What the record says about COCN1C(=O)COc2cc(F)c(-c3nn4c(c3Br)CCCC4)cc21 [Compound 67] : Plant response rating (0 to 100), Morningglory is 50

Documented Plant response rating (0 to 100), Morningglory of C#CCN1C(=O)COc2cc(F)c(-c3nn4c(c3Cl)CCCC4)cc21 [Compound 34] : 60

In plain terms, CCN1C(=O)COc2cc(F)c(-c3nn4c(c3Cl)CCCC4)cc21 [Compound 54] has a documented Plant response rating (0 to 100), Morningglory of 60

###

- Tested on: blackgrass
- test.description: Test C preemergence/postemergence greenhouse plant response rating 0 to 100
- Assay type: in vivo, Alopecurus myosuroides
- experimental.conditions: POSTEMERGENCE, 62 g/ha, 0 to 100 scale
quantity.measured: Plant response rating, Blackgrass

Plant response rating, Blackgrass reading for COC(=O)C(C)Oc1cc(-c2nn3c(c2Cl)CCCC3)c(F)cc1Cl (stereo not drawn) [Compound 28] : 50

# Plant response rating, Blackgrass (molecule: C=CCN1C(=O)COc2cc(F)c(-c3nn4c(c3Cl)CCCC4)cc21 [Compound 33] ) is 60

The reported value for CC(C)OC(=O)c1cc(-c2nn3c(c2Cl)CCCC3)c(F)cc1Cl [Compound 44] in terms of Plant response rating, Blackgrass is 60

Looking up CC(C)N1C(=O)COc2cc(F)c(-c3nn4c(c3Cl)CCCC4)cc21 [Compound 31] , I found its Plant response rating, Blackgrass recorded as 40

Sample CCC(C)Oc1cc(-c2nn3c(c2Cl)CCCC3)c(F)cc1Cl (stereo not drawn) [Compound 48] ; Plant response rating, Blackgrass observed: 50

In plain terms, C#CCN1C(=O)COc2cc(F)c(-c3nn4c(c3Br)CCCC4)cc21 [Compound 56] has a documented Plant response rating, Blackgrass of 80

The reported Plant response rating, Blackgrass of the molecule COCN1C(=O)COc2cc(F)c(-c3nn4c(c3Cl)CCCC4)cc21 [Compound 55] was 60

So, CCCN1C(=O)COc2cc(F)c(-c3nn4c(c3Cl)CCCC4)cc21 [Compound 32] ? Its Plant response rating, Blackgrass was 50

Data point: C#CCOc1cc(-c2nn3c(c2Br)CCCC3)c(F)cc1Cl [Compound 26] ; Plant response rating, Blackgrass = 40

###

- System: crabgrass
- test.description: Test B preemergence/postemergence greenhouse plant response rating 0 to 10
- Type: in vivo, Digitaria spp.
- experimental.conditions: Rate 200 g/ha, POSTEMERGENCE; 0 to 10 scale
quantity.measured: Plant response rating, Crabgrass
Could you respond with only the numeric value?

// Plant response rating, Crabgrass value for CON=C(C)c1cc(-c2nn3c(c2Cl)CCCC3)c(F)cc1Cl [Compound 82] : 4

Briefly, Plant response rating, Crabgrass measured for O=C1COc2cc(F)c(-c3nn4c(c3Br)CCCC4)cc2N1 [Compound 80] : 6

Query CC(C)(C)C(=O)COc1cc(-c2nn3c(c2Cl)CCCC3)c(Cl)cc1Cl [Compound 77] yields Plant response rating, Crabgrass of 6

Sample Oc1cc(-c2nn3c(c2Cl)CCCC3)c(Cl)cc1Cl [Compound 68] ; Plant response rating, Crabgrass observed: 4

###

- System: wheat
- test.description: Test B preemergence/postemergence greenhouse plant response rating 0 to 10
- Assay type: in vivo, Triticum aestivum
- experimental.conditions: POSTEMERGENCE, Rate 200 g/ha; 0 to 10 scale
The threshold is inclusive: Plant response rating, Wheat of exactly 6 counts as MET; values below receive NOT MET.

query: Reported Plant response rating, Wheat at or above 6? C#CCOc1cc(-c2nn3c(c2Br)CCCC3)c(F)cc1Cl
result: NOT MET

query: Check the entry Clc1ccc(-c2nc3n(c2Br)CCCC3)c(Cl)c1 : does Plant response rating, Wheat equal or exceed 6?
result: NOT MET

query: Hi, just wondering whether CC(C)Oc1cc(-c2nn3c(c2Cl)CCCC3)c(F)cc1Cl shows Plant response rating, Wheat of 6 or higher.
result: MET

query: Given COC(=O)C(C)Oc1cc(-c2nn3c(c2Cl)CCCC3)c(F)cc1Cl (centres unmarked) , state whether its Plant response rating, Wheat is at least 6.
result: MET
